- System tested: T1, ZFP SBS#1378 (synthetic)
- T1 chain: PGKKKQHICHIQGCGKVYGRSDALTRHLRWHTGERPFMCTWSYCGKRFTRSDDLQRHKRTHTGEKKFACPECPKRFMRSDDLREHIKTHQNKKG
- Assay summary: EMSA
- Reported conditions: tags: MBP fusion
pKd: −log10 of the molar value.
Parameter measured: pKd

>>> numeric_readout("CCGGCGGTG (dsDNA) DNA 1: CCGGCGGTG DNA 2: CACCGCCGG")
10.92
